- System: MT-4 (Homo sapiens)
- Protocol Notes: Concentration required to reduce the viability of mock-infected MT-4 cells by 50% was determined by MTT method
- Assay Setup: MT4
Reported Endpoint: CC50

Indicate the recorded CC50 value for this compound: "Cc1ccc(C(=O)N(C(=S)OCCOc2ccccc2)c2ccccc2)cc1"
> 200 µM

Indicate the recorded CC50 value for this compound: CC(COc1ccccc1)OC(=S)N(C(=O)c1cccs1)c1ccc(Cl)cc1 (configuration not stated)
> 100 µM

Indicate the recorded CC50 value for this compound: "O=C1c2ccccc2C(=O)N1CCOC(=S)N(C(=O)c1ccc(Cl)cc1)c1ccc(Cl)cc1"
> 100 µM

Indicate the recorded CC50 value for this compound: "COc1cccc(N(C(=O)c2cccs2)C(=S)OCCN2C(=O)c3ccccc3C2=O)c1"
> 100 µM

Indicate the recorded CC50 value for this compound: "COc1cc(C(=O)N(C(=S)OCCOc2ccccc2)c2ccccc2)cc(OC)c1OC"
> 200 µM

Indicate the recorded CC50 value for this compound: "COc1ccccc1N(C(=O)c1cccs1)C(=S)OCCN1C(=O)c2ccccc2C1=O"
> 100 µM

Indicate the recorded CC50 value for this compound: "CCN(CC)c1ccc(N(C(=O)c2cccs2)C(=S)OCCN2C(=O)c3ccccc3C2=O)cc1"
> 100 µM

Indicate the recorded CC50 value for this compound: CC(COc1ccccc1)OC(=S)N(C(=O)Oc1ccccc1)c1ccccc1 (configuration not stated)
> 200 µM

Indicate the recorded CC50 value for this compound: "CC(=O)c1cccc(N(C(=O)c2cccs2)C(=S)OCCN2C(=O)c3ccccc3C2=O)c1"
> 100 µM

Indicate the recorded CC50 value for this compound: "CCc1ccc(N(C(=O)c2ccco2)C(=S)OCCN2C(=O)c3ccccc3C2=O)cc1"
> 100 µM

Indicate the recorded CC50 value for this compound: "O=C1c2ccccc2C(=O)N1CCOC(=S)N(C(=O)c1ccccc1)c1ccc(Cl)cc1"
> 200 µM

Indicate the recorded CC50 value for this compound: "O=C1c2ccccc2C(=O)N1CCOC(=S)N(C(=O)c1ccccc1)c1ccc(Br)cc1"
> 200 µM
